Consider the following compounds and their measured pIC50 readings.
target.entity: BRD4-NUT-fusion (Homo sapiens (Human), UniProt O60885+Q86Y26)
experiment.description: Nut-foci formation assay (HCS) in HCC2494 NUT midline carcinoma cells
conditions.used: 24 hours, nuclear BRD4-NUT foci, immunofluorescence
Please note pIC50 is a logarithmic value: minus log10 of concentration in mol/L. Answer with that number alone.

For orientation, consider the following solved cases.
                                   compound  outcome_measure  endpoint_value
0  Cc1nn(C(C)C)c2c1C(=O)N(c1cc(C)c(=O)n(C)c1)C2c1ccc(Cl)cc1 (stereo not shown) [Example 12]            pIC50            7.32
1  COc1ncccc1-c1nn(C)c2c1C(=O)N(c1cc(C)c(=O)n(C)c1)C2c1ccc(Cl)cc1 (stereo not shown) [Example 15]            pIC50            7.22
2  Cc1[nH]nc2c1C(=O)N(c1cc(Cl)c(=O)n(C)c1)C2c1ccc(Cl)cc1 (stereo not shown) [Example 6]            pIC50            6.97

Switching to the query record.
[ask] Specify pIC50 for COc1ncccc1-c1nn(C)c2c1C(=O)N(c1cc(C)c(=O)n(C)c1)[C@@H]2c1ccc(Cl)cc1 [Example 16] and stop.
[reply] 7.22

---

System: THP-1 cells
experiment.description: Cell growth inhibition assay (CellTiter-Glo), THP-1
Format: cell-based, human
conditions.used: THP-1, 4 days, total growth inhibition
outcome.measure: THP-1 TGI (µM)
Numeric only. Scale: µM

For orientation, consider the following solved cases.
>>> print(df.to_string())
                                   molecule  target_entity  endpoint_value
0  COc1ncccc1-n1nc2c(c1C)C(=O)N(c1cc(Cl)c(=O)n(C)c1)C2c1ccc(Cl)cc1 (stereo not drawn)    THP-1 cells           0.285
1  Cc1nn(-c2cccnc2F)c2c1C(=O)N(c1cc(C)c(=O)n(C)c1)C2c1ccc(Cl)cc1 (stereo not drawn)    THP-1 cells           0.164
2  COc1ccc(-n2nc(C)c3c2C(c2ccc(Cl)cc2)N(c2cc(C)c(=O)n(C)c2)C3=O)cc1 (stereo not drawn)    THP-1 cells           0.119
3  COc1ncc(-n2nc3c(c2C)C(=O)N(c2cc(C)c(=O)n(C)c2)C3c2ccc(Cl)cc2)cn1 (stereo not drawn) [Example 21b]    THP-1 cells           0.396
4  COc1ncccc1-c1nn(C)c2c1C(=O)N(c1cc(C)c(=O)n(C)c1)C2c1ccc(Cl)cc1 (stereo not drawn)    THP-1 cells           0.143
5  COc1ncc(-n2nc3c(c2C)C(=O)N(c2cc(Cl)c(=O)n(C)c2)C3c2ccc(Cl)cc2)cn1 (stereo not drawn)    THP-1 cells           0.562
6  COc1ccc(-n2nc3c(c2C)C(=O)N(c2cc(C)c(=O)n(C)c2)C3c2ccc(Cl)cc2)cn1 (stereo not drawn) [Example 20a]    THP-1 cells           0.178
7  COc1ncccc1-c1nn(C)c2c1C(=O)N(c1cc(C)c(=O)n(C)c1)[C@@H]2c1ccc(Cl)cc1    THP-1 cells          0.0922
8  COc1ncccc1-n1nc2c(c1C)C(=O)N(c1cc(C)c(=O)n(C)c1)[C@@H]2c1ccc(Cl)cc1    THP-1 cells          0.0524
9  Cc1nn(C)c2c1C(=O)N(c1cc(C)c(=O)n(C)c1)C2c1ccc(Cl)cc1 (stereo not drawn)    THP-1 cells           0.132

[ask] Specify THP-1 TGI for Cc1nn(C2CC2)c2c1C(=O)N(c1cc(C)c(=O)n(C)c1)C2c1ccc(Cl)cc1 (stereo not drawn) and stop.
[reply] 0.0822

[ask] Specify THP-1 TGI for COc1ncc(-n2nc(C)c3c2C(c2ccc(Cl)cc2)N(c2cc(C)c(=O)n(C)c2)C3=O)cn1 (stereo not drawn) [Example 21a] and stop.
[reply] 0.331

[ask] Specify THP-1 TGI for CCOc1ncccc1-n1nc2c(c1C)C(=O)N(c1cc(C)c(=O)n(C)c1)C2c1ccc(Cl)cc1 (stereo not drawn) [Example 18b] and stop.
[reply] 0.0931

[ask] Specify THP-1 TGI for Cc1cc(N2C(=O)c3c(C4CC4)nn(-c4ccnn4C)c3C2c2ccc(Cl)cc2)cn(C)c1=O (stereo not drawn) and stop.
[reply] 0.179

[ask] Specify THP-1 TGI for Cc1cc(N2C(=O)c3c(C4CC4)nn(C)c3C2c2ccc(Cl)cc2)cn(C)c1=O (stereo not drawn) and stop.
[reply] 0.104

---

Consider the following compounds and their measured GI50 readings.
Test system: MV-4-11 cells
experiment.description: Cell growth inhibition assay (CellTiter-Glo), MV-4-11
Type: cell-based, human
conditions.used: Homo sapiens, MV4-11, 96 h, MV-4-11, 4 days, half-maximal growth inhibition
State the value, then name its unit.

>>> print(df.to_string())
                                   compound  outcome_measure  endpoint_value
0  Cc1[nH]nc2c1C(=O)N(c1cc(Cl)c(=O)n(C)c1)[C@@H]2c1ccc(Cl)cc1 [Example 28]             GI50       0.0493 µM

[ask] Specify GI50 for COc1ncc(-n2nc3c(c2C)C(=O)N(c2cc(C)c(=O)n(C)c2)C3c2ccc(Cl)cc2)cn1 (stereo not shown) [Example 21b] and stop.
[reply] 0.105 µM

[ask] Specify GI50 for Cc1nn(C2CC2)c2c1C(=O)N(c1cc(C)c(=O)n(C)c1)C2c1ccc(Cl)cc1 (stereo not shown) [Example 11] and stop.
[reply] 0.0186 µM

[ask] Specify GI50 for CCOc1ncccc1-n1nc2c(c1C)C(=O)N(c1cc(C)c(=O)n(C)c1)C2c1ccc(Cl)cc1 (stereo not shown) [Example 18b] and stop.
[reply] 0.0169 µM

---

Consider the following compounds and their measured IC50 readings.
target.entity: BRD4-NUT-fusion (Homo sapiens (Human), UniProt O60885+Q86Y26)
experiment.description: Nut-foci formation assay (HCS) in HCC2494 NUT midline carcinoma cells
conditions.used: 24 hours, nuclear BRD4-NUT foci, immunofluorescence
Numeric only. Scale: nM

For orientation, consider the following solved cases.
>>> print(df.to_string())
                                   compound  outcome_measure  measure_unit  endpoint_value
0  COc1ncc(-n2nc(C)c3c2C(c2ccc(Cl)cc2)N(c2cc(Cl)c(=O)n(C)c2)C3=O)cn1 (stereo not shown)             IC50            nM             298
1  COc1ncc(-n2nc3c(c2C)C(=O)N(c2cc(Cl)c(=O)n(C)c2)C3c2ccc(Cl)cc2)cn1 (stereo not shown)             IC50            nM              58

[ask] Specify IC50 for Cc1cc(N2C(=O)c3c(C4CC4)nn(CCO)c3C2c2ccc(Cl)cc2)cn(C)c1=O (stereo not shown) and stop.
[reply] 49

[ask] Specify IC50 for Cc1cc(N2C(=O)c3c(C4CC4)nn(-c4ccnn4C)c3C2c2ccc(Cl)cc2)cn(C)c1=O (stereo not shown) and stop.
[reply] 138

[ask] Specify IC50 for Cc1nn(-c2cccnc2F)c2c1C(=O)N(c1cc(C)c(=O)n(C)c1)C2c1ccc(Cl)cc1 (stereo not shown) and stop.
[reply] 66.7

[ask] Specify IC50 for CCOc1ncccc1-n1nc2c(c1C)C(=O)N(c1cc(C)c(=O)n(C)c1)C2c1ccc(Cl)cc1 (stereo not shown) [Example 18b] and stop.
[reply] 21.7

[ask] Specify IC50 for COc1ncccc1-n1nc2c(c1C)C(=O)N(c1cc(Cl)c(=O)n(C)c1)C2c1ccc(Cl)cc1 (stereo not shown) and stop.
[reply] 74.4

[ask] Specify IC50 for COc1ccc(-n2nc3c(c2C)C(=O)N(c2cc(C)c(=O)n(C)c2)C3c2ccc(Cl)cc2)cn1 (stereo not shown) [Example 20a] and stop.
[reply] 73.6

[ask] Specify IC50 for Cc1cc(N2C(=O)c3c(C4CC4)nn(C)c3C2c2ccc(Cl)cc2)cn(C)c1=O (stereo not shown) and stop.
[reply] 33.3

[ask] Specify IC50 for COc1ccc(-n2nc(C)c3c2C(c2ccc(Cl)cc2)N(c2cc(C)c(=O)n(C)c2)C3=O)cn1 (stereo not shown) [Example 20b] and stop.
[reply] 57.6

[ask] Specify IC50 for COc1ncccc1-n1nc(C)c2c1C(c1ccc(Cl)cc1)N(c1cc(C)c(=O)n(C)c1)C2=O (stereo not shown) [Example 17a] and stop.
[reply] 56.1

[ask] Specify IC50 for CCOc1ncccc1-n1nc(C)c2c1C(c1ccc(Cl)cc1)N(c1cc(C)c(=O)n(C)c1)C2=O (stereo not shown) [Example 18a] and stop.
[reply] 66.6
